B1: library; a variant is named by its letters at N, in order (parent)
chain: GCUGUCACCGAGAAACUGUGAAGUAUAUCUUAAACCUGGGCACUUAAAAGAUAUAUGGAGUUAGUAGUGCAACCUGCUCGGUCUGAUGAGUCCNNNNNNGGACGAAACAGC

variants of: B1; assay: normalized RNA/DNA level without ligand (relative to sTRSVctl = 100) (log10 (% of sTRSVctl)); HEK293T; ligand: cyclic di-GMP (c-di-GMP-II aptamer); higher = less ribozyme self-cleavage, higher mRNA level; details: reporter: mCherry (pCS4076), ligand present: no
Reported normalized RNA/DNA level without ligand (log10) values follow for various variants
Give the figure by itself; no unit, no explanation.

• GCUGUCACCGAGAAACUGUGAAGUAUAUCUUAAACCUGGGCACUUAAAAGAUAUAUGGAGUUAGUAGUGCAACCUGCUCGGUCUGAUGAGUCCAGGGGCGGACGAAACAGC [AGGGGC] = 1.69
• GCUGUCACCGAGAAACUGUGAAGUAUAUCUUAAACCUGGGCACUUAAAAGAUAUAUGGAGUUAGUAGUGCAACCUGCUCGGUCUGAUGAGUCCUAGUAAGGACGAAACAGC [UAGUAA] = 1.65

Prompt: Indicate its recorded normalized RNA/DNA level without ligand (log10); the variant in question is GCUGUCACCGAGAAACUGUGAAGUAUAUCUUAAACCUGGGCACUUAAAAGAUAUAUGGAGUUAGUAGUGCAACCUGCUCGGUCUGAUGAGUCCCUGCUCGGACGAAACAGC [CUGCUC]
Completion: 1.7

Prompt: Name the recorded normalized RNA/DNA level without ligand (log10) of the variant listed here: GCUGUCACCGAGAAACUGUGAAGUAUAUCUUAAACCUGGGCACUUAAAAGAUAUAUGGAGUUAGUAGUGCAACCUGCUCGGUCUGAUGAGUCCGUCAUGGGACGAAACAGC [GUCAUG]
Completion: 1.61

Prompt: Tell me normalized RNA/DNA level without ligand (log10) reported for GCUGUCACCGAGAAACUGUGAAGUAUAUCUUAAACCUGGGCACUUAAAAGAUAUAUGGAGUUAGUAGUGCAACCUGCUCGGUCUGAUGAGUCCUCAAACGGACGAAACAGC [UCAAAC]
Completion: 1.63

Prompt: Output measured normalized RNA/DNA level without ligand (log10) for this item: GCUGUCACCGAGAAACUGUGAAGUAUAUCUUAAACCUGGGCACUUAAAAGAUAUAUGGAGUUAGUAGUGCAACCUGCUCGGUCUGAUGAGUCCAGACCAGGACGAAACAGC [AGACCA]
Completion: 1.75

Prompt: Retrieve normalized RNA/DNA level without ligand (log10) measured for GCUGUCACCGAGAAACUGUGAAGUAUAUCUUAAACCUGGGCACUUAAAAGAUAUAUGGAGUUAGUAGUGCAACCUGCUCGGUCUGAUGAGUCCAGACAUGGACGAAACAGC [AGACAU] and print it.
Completion: 1.62

Prompt: Give normalized RNA/DNA level without ligand (log10) for the following variant: GCUGUCACCGAGAAACUGUGAAGUAUAUCUUAAACCUGGGCACUUAAAAGAUAUAUGGAGUUAGUAGUGCAACCUGCUCGGUCUGAUGAGUCCCUGCAAGGACGAAACAGC [CUGCAA]
Completion: 1.36

Prompt: Return normalized RNA/DNA level without ligand (log10) for the following variant: GCUGUCACCGAGAAACUGUGAAGUAUAUCUUAAACCUGGGCACUUAAAAGAUAUAUGGAGUUAGUAGUGCAACCUGCUCGGUCUGAUGAGUCCGAGGUCGGACGAAACAGC [GAGGUC]
Completion: 1.68

Prompt: State its normalized RNA/DNA level without ligand (log10): GCUGUCACCGAGAAACUGUGAAGUAUAUCUUAAACCUGGGCACUUAAAAGAUAUAUGGAGUUAGUAGUGCAACCUGCUCGGUCUGAUGAGUCCGUCGAUGGACGAAACAGC [GUCGAU]
Completion: 1.59

Prompt: Provide only the value of recorded normalized RNA/DNA level without ligand (log10) for GCUGUCACCGAGAAACUGUGAAGUAUAUCUUAAACCUGGGCACUUAAAAGAUAUAUGGAGUUAGUAGUGCAACCUGCUCGGUCUGAUGAGUCCGUAAGAGGACGAAACAGC [GUAAGA]
Completion: 1.46

Prompt: Return normalized RNA/DNA level without ligand (log10) for the following variant: GCUGUCACCGAGAAACUGUGAAGUAUAUCUUAAACCUGGGCACUUAAAAGAUAUAUGGAGUUAGUAGUGCAACCUGCUCGGUCUGAUGAGUCCCACCGGGGACGAAACAGC [CACCGG]
Completion: 1.75

Prompt: # return recorded normalized RNA/DNA level without ligand (log10) for entry GCUGUCACCGAGAAACUGUGAAGUAUAUCUUAAACCUGGGCACUUAAAAGAUAUAUGGAGUUAGUAGUGCAACCUGCUCGGUCUGAUGAGUCCACCUCUGGACGAAACAGC [ACCUCU]
Completion: 1.72

Prompt: Indicate its recorded normalized RNA/DNA level without ligand (log10); the variant in question is GCUGUCACCGAGAAACUGUGAAGUAUAUCUUAAACCUGGGCACUUAAAAGAUAUAUGGAGUUAGUAGUGCAACCUGCUCGGUCUGAUGAGUCCGUAGGAGGACGAAACAGC [GUAGGA]
Completion: 1.43

Prompt: Give normalized RNA/DNA level without ligand (log10) for the following variant: GCUGUCACCGAGAAACUGUGAAGUAUAUCUUAAACCUGGGCACUUAAAAGAUAUAUGGAGUUAGUAGUGCAACCUGCUCGGUCUGAUGAGUCCCUGUUGGGACGAAACAGC [CUGUUG]
Completion: 1.56

Prompt: Specify reported normalized RNA/DNA level without ligand (log10) for the variant shown: GCUGUCACCGAGAAACUGUGAAGUAUAUCUUAAACCUGGGCACUUAAAAGAUAUAUGGAGUUAGUAGUGCAACCUGCUCGGUCUGAUGAGUCCUCCACCGGACGAAACAGC [UCCACC]
Completion: 1.63

Prompt: Give reported normalized RNA/DNA level without ligand (log10) value for GCUGUCACCGAGAAACUGUGAAGUAUAUCUUAAACCUGGGCACUUAAAAGAUAUAUGGAGUUAGUAGUGCAACCUGCUCGGUCUGAUGAGUCCUGGGAGGGACGAAACAGC [UGGGAG]
Completion: 1.67

Prompt: Tell me measured normalized RNA/DNA level without ligand (log10) for GCUGUCACCGAGAAACUGUGAAGUAUAUCUUAAACCUGGGCACUUAAAAGAUAUAUGGAGUUAGUAGUGCAACCUGCUCGGUCUGAUGAGUCCAGACACGGACGAAACAGC [AGACAC] please.
Completion: 1.68

Prompt: Please give measured normalized RNA/DNA level without ligand (log10) of the following entry: GCUGUCACCGAGAAACUGUGAAGUAUAUCUUAAACCUGGGCACUUAAAAGAUAUAUGGAGUUAGUAGUGCAACCUGCUCGGUCUGAUGAGUCCUAUAACGGACGAAACAGC [UAUAAC]
Completion: 1.7

Prompt: Give normalized RNA/DNA level without ligand (log10) for GCUGUCACCGAGAAACUGUGAAGUAUAUCUUAAACCUGGGCACUUAAAAGAUAUAUGGAGUUAGUAGUGCAACCUGCUCGGUCUGAUGAGUCCUGCAUGGGACGAAACAGC [UGCAUG]
Completion: 1.73

Prompt: Give me measured normalized RNA/DNA level without ligand (log10), please, for this variant: GCUGUCACCGAGAAACUGUGAAGUAUAUCUUAAACCUGGGCACUUAAAAGAUAUAUGGAGUUAGUAGUGCAACCUGCUCGGUCUGAUGAGUCCAGCCACGGACGAAACAGC [AGCCAC]
Completion: 1.7

Prompt: Return reported normalized RNA/DNA level without ligand (log10). Input variant: GCUGUCACCGAGAAACUGUGAAGUAUAUCUUAAACCUGGGCACUUAAAAGAUAUAUGGAGUUAGUAGUGCAACCUGCUCGGUCUGAUGAGUCCUACACGGGACGAAACAGC [UACACG]
Completion: 1.76

Prompt: Given GCUGUCACCGAGAAACUGUGAAGUAUAUCUUAAACCUGGGCACUUAAAAGAUAUAUGGAGUUAGUAGUGCAACCUGCUCGGUCUGAUGAGUCCACUCGGGGACGAAACAGC [ACUCGG] , respond with its normalized RNA/DNA level without ligand (log10).
Completion: 1.72

Prompt: Indicate its recorded normalized RNA/DNA level without ligand (log10); the variant in question is GCUGUCACCGAGAAACUGUGAAGUAUAUCUUAAACCUGGGCACUUAAAAGAUAUAUGGAGUUAGUAGUGCAACCUGCUCGGUCUGAUGAGUCCCACGUUGGACGAAACAGC [CACGUU]
Completion: 1.73
